measurement_conditions: [M-H2O-H]-; instrument: DT; single field, calibrated with Agilent tune mix (Agilent)
reported_property: collision cross section (N2) (Å²)
Give the quantity in Å², number only.

Consider the worked cases shown below.
INSERT INTO results (compound, reported_property, numeric_readout) VALUES
  ('O=C(O)Cc1ccc(O)c(O)c1 [3,4-Dihydroxyphenylacetic acid]', 'collision cross section (N2)', 125.7),
  ('N[C@@H](CCC(=O)N[C@@H](CCC(=O)O)C(=O)O)C(=O)O [gamma-L-Glutamyl-L-glutamic acid]', 'collision cross section (N2)', 152.43),
  ('N[C@@H](C[C@@H](O)C(=O)O)C(=O)O [L-Erythro-4-Hydroxyglutamic acid]', 'collision cross section (N2)', 123.86);

Qu. Would you mind telling me what collision cross section (N2) value was observed for C[C@]12CCC(=O)C=C1CC[C@@H]1[C@@H]2C(=O)C[C@@]2(C)[C@H]1CC[C@]2(O)C(=O)CO [Cortisone] ?
Ans. 180.07

Qu. Do the same for CCCCC[C@H](O)/C=C/[C@H]1[C@H](O)CC(=O)[C@@H]1CCCCCCC(=O)O [Prostaglandin E1] please
Ans. 181.94

---

measurement_conditions: [M+H]+; instrument: TW; Major Mix IMS/Tof Calibration Kit (Waters)
Quick list: collision cross section (N2) per entry.
Give the quantity in Å², number only.

Consider the worked cases shown below.
INSERT INTO assay_data (molecule, numeric_readout) VALUES
  ('c1ccc2c(CC3=NCCN3)cccc2c1', 149.6),
  ('CCN(CC)C(C)C(=O)c1ccccc1 (stereo not drawn)', 148),
  ('CN1C(C(=O)Nc2ccccn2)=C(O)c2sccc2S1(=O)=O', 170.4);

Now for a further molecule.
Qu. Would you mind telling me what collision cross section (N2) value was observed for `CN(C)CCc1c[nH]c2ccc(C[C@H]3COC(=O)N3)cc12` ?
Ans. 160.6

---

Quick list: collision cross section (N2) per entry.
measurement_conditions: [M+H]+; instrument: TW
Give the quantity in Å², number only.

Qu. Would you mind telling me what collision cross section (N2) value was observed for CC1(C)CC/C(=C\c2ccc(Cl)cc2)C1(O)Cn1cncn1 (centres undefined) ?
Ans. 179.18

Qu. Do the same for `CCn1cc(C(=O)O)c(=O)c2ccc(C)nc21` please
Ans. 141.4

Qu. Do the same for `CCS(=O)(=O)CCSP(=O)(OC)OC` please
Ans. 143.66

Qu. Do the same for `Cc1c(Cl)cccc1Nc1ccccc1C(=O)O` please
Ans. 153.7

Qu. Do the same for CNC(=O)ON=CC(C)(C)S(C)=O (centres undefined) [Aldicarb sulfoxide] please
Ans. 145.4

Qu. Do the same for CCC(NC(C)C)C(O)c1ccc(O)c2[nH]c(=O)ccc12 (centres undefined) please
Ans. 168

Qu. Do the same for `C[C@@H]1C[C@H]2[C@@H]3C[C@H](F)C4=CC(=O)C=C[C@]4(C)[C@@]3(F)[C@@H](O)C[C@]2(C)[C@@]1(O)C(=O)CO` please
Ans. 193.2

Qu. Do the same for CC1(C)CCC(Cc2ccc(Cl)cc2)C1(O)Cn1cncn1 (centres undefined) please
Ans. 168.62

Qu. Do the same for `CCC(=O)c1ccc2c(c1)N(CCCN(C)C)c1ccccc1S2` please
Ans. 182.8

Qu. Do the same for `C[C@]12CCC(=O)C=C1CC[C@@H]1[C@@H]2C(=O)C[C@@]2(C)[C@H]1CC[C@]2(O)C(=O)CO` please
Ans. 184

Qu. Do the same for `CC1(C(=O)Nc2ccc(O)c(Cl)c2Cl)CCCCC1` please
Ans. 164.82

Qu. Do the same for CC(C)(C)NCC(O)c1ccc(O)c(CO)c1 (centres undefined) please
Ans. 158.3

---

measurement_conditions: [M+H]+; instrument: TW; calibrated with polyalanine
reported_property: collision cross section (N2) (Å²)
Give the quantity in Å², number only.

Consider the worked cases shown below.
INSERT INTO measurements (compound, reported_property, units_of_measure, numeric_readout) VALUES
  ('N[C@@H](CCC(=O)O)C(=O)O', 'collision cross section (N2)', 'Å²', 123),
  ('O=C(O)[C@@H]1C[C@@H](O)CN1 [Hydroxyproline]', 'collision cross section (N2)', 'Å²', 122),
  ('N[C@@H](CSSC[C@H](N)C(=O)O)C(=O)O', 'collision cross section (N2)', 'Å²', 145),
  ('NC(=O)CC[C@H](N)C(=O)O', 'collision cross section (N2)', 'Å²', 124);

Now for a further compound.
Qu. Would you mind telling me what collision cross section (N2) value was observed for `Nc1nc(=O)c2ncn([C@@H]3O[C@H](COP(=O)(O)OP(=O)(O)OP(=O)(O)O)[C@@H](O)[C@H]3O)c2[nH]1` ?
Ans. 196

---

Quick list: collision cross section (N2) per entry.
measurement_conditions: [M+K]+; instrument: DT; stepped-field
Give the quantity in Å², number only.

INSERT INTO assay_data (molecule_smiles, numeric_readout) VALUES
  ('CCCCC/C=C\C/C=C\C/C=C\CCCCCCC(=O)O[C@H](COC(=O)CCCCCCC/C=C\CCCCCCCC)COP(=O)(O)OC[C@H](N)C(=O)O', 289.37),
  ('CCCCCC/C=C\CCCCCCCCCC(=O)O[C@H](COC(=O)CCCCCCCCCCCCCCC)COP(=O)(O)OCCN', 277.57),
  ('CC/C=C\C/C=C\C/C=C\C/C=C\C/C=C\CCCC(=O)OC[C@H](COP(=O)(O)OC[C@H](N)C(=O)O)OC(=O)CCCCC/C=C\C/C=C\C/C=C\C/C=C\CCCCC', 294.57);

Now for a further compound.
Qu. Would you mind telling me what collision cross section (N2) value was observed for `CCCCCC/C=C/CCCCCCCCCC(=O)O[C@H](COC(=O)CCCCCCCCCCCCCCC)COP(=O)([O-])OCC[N+](C)(C)C` ?
Ans. 285.76

---

Quick list: collision cross section (N2) per entry.
measurement_conditions: [M-H]-; instrument: TW; calibrated with phosphatidylcholines (ESI+) and phosphatidylethanolamines (ESI-)
Give the quantity in Å², number only.

INSERT INTO measurements (molecule_smiles, units_of_measure, numeric_readout) VALUES
  ('CCCCCCCCCCCCC=CC[C@@H](O)[C@H](CO)NC(=O)CC=CCCCCCCCCCCCCCCCCCCCC', 'Å²', 266.4);

Qu. Would you mind telling me what collision cross section (N2) value was observed for `CC/C=C\C/C=C\C/C=C\CCCCCCCC(=O)O[C@H](CO/C=C\CCCCCCCCCCCCCCCC)COP(=O)(O)OCCN` ?
Ans. 265.2

Qu. Do the same for `CCCCC/C=C\C/C=C\CCCCCCCCCCCC(=O)O[C@H](COC(=O)CCCCCCCCCCCCC)COP(=O)(O)OC[C@H](N)C(=O)O` please
Ans. 277.4

---

measurement_conditions: [M+NH4]+; instrument: DT; single field
reported_property: collision cross section (N2) (Å²)
Give the quantity in Å², number only.

Consider the worked cases shown below.
INSERT INTO assay_data (molecule, numeric_readout) VALUES
  ('CCCCC/C=C\C/C=C\C/C=C\CCCCC(=O)OC[C@H](CO)OC(=O)CCCCCCC/C=C\CCCCCCCC [DG(36:4)]', 257.21),
  ('CC/C=C\C/C=C\C/C=C\C/C=C\C/C=C\CCCCCC(=O)O[C@@H](CO)COC(=O)CCCC/C=C\C/C=C\C/C=C\CCCCC [DG(40:8)]', 266.74);

Qu. Would you mind telling me what collision cross section (N2) value was observed for CCCCC/C=C\C/C=C\C/C=C\CCCCCCCCC(=O)O[C@@H](CO)COC(=O)CCCCCCCCCCCCC [DG(36:3)] ?
Ans. 261.08

Qu. Do the same for CC/C=C\C/C=C\C/C=C\CCCCCCCC(=O)O[C@@H](COC(=O)CCC/C=C\C/C=C\C/C=C\C/C=C\CCCCC)COC(=O)CCCCCCC/C=C\C/C=C\CCCCC [TG(56:9)] please
Ans. 321.77

Qu. Do the same for CCCCC/C=C\C/C=C\C/C=C\C/C=C\CCCC(=O)O[C@@H](CO)COC(=O)CCCC/C=C\C/C=C\C/C=C\CCCCC [DG(38:7)] please
Ans. 259.31

Qu. Do the same for CCCCCCCC/C=C\CCCCCCCCCC(=O)O[C@@H](CO)COC(=O)CCCCCCCCCCC [DG(32:1)] please
Ans. 255.8

---

measurement_conditions: [M+H]+; instrument: TW; calibrated with polyalanine and drug standards
reported_property: collision cross section (N2)
Reply with the number, then its unit.

Consider the worked cases shown below.
INSERT INTO assay_data (molecule, reported_property, result) VALUES
  ('COc1cc2c(cc1O)CCNC2C (centres undefined)', 'collision cross section (N2)', '145.8 Å²'),
  ('CC(C)(C)NCC(O)c1ccc(O)c(CO)c1 (centres undefined)', 'collision cross section (N2)', '158.4 Å²'),
  ('CCCCCC1C(=O)CCC1CC(=O)O (centres undefined) [DIHYDROJASMONIC ACID]', 'collision cross section (N2)', '147 Å²');

Qu. Would you mind telling me what collision cross section (N2) value was observed for CC(=O)O[C@@H]1CC(=O)[C@@]2(C)C(CC(=O)[C@]3(C)C2CC[C@@]2(C)[C@H](c4ccoc4)OC(=O)C4OC423)C1(C)C (some centres undefined) ?
Ans. 210.9 Å²
